- Assay details: Pharmacokinetic study of oral and intravenously injected compounds in CD-1 mouse
- Format: in vivo
- Condition context: male, CD-1, plasma, intravenous (IV), about 2 mg/kg
Counter-ions that a name gives are not always drawn.
Catalogue of compounds with associated Vd

Compound	Quantity unit	Vd
Cc1cc(N)c(F)c(C2Cc3nc(OC[C@@]45CCCN4C[C@H](F)C5)nc(N4CC5CCC(C4)N5)c3CO2)c1C(F)(F)F (some centres unmarked) [Compound 1 hydrochloride]	L/kg	148
Nc1ccc(C(F)(F)F)c([C@H]2Cc3nc(OC[C@@]45CCCN4C[C@H](F)C5)nc(N4CC5CCC(C4)N5)c3CO2)c1F (single isomer, unassigned) [Compound 20B]	L/kg	97.2

----------
- System under test: KRAS^G12D (Homo sapiens (Human), UniProt P01116, G12D)
- Sequence (P01116-2 other isoform, or with tags, fused parts or gaps G12D): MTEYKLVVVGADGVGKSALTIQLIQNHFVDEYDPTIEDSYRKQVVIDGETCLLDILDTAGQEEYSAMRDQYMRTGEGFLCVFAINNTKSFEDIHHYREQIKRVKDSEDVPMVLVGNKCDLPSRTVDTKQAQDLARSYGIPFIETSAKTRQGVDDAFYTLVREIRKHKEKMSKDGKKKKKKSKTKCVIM
- Assay details: Assay of activity of inhibiting KRAS^G12D (TR-FRET, SOS/GTP nucleotide exchange)
pIC50: −log10 of the molar value. Structures can show the parent of a compound that is named as a salt.
Catalogue of compounds with associated pIC50
Quantity kind: pIC50

Compound	Assay result
Cc1cc(N)c(F)c(C2Cc3nc(OC[C@@]45CCCN4C[C@H](F)C5)nc(N4CC5C=CC(C4)N5)c3CO2)c1C(F)(F)F (some centres unmarked) [Compound 7 hydrochloride]	10.00
Oc1cc(C2Cc3nc(OC[C@@]45CCCN4C[C@H](F)C5)nc(N4CC5CCC(C4)N5)c3CO2)c2ccccc2c1 (some centres unmarked) [Compound 8 hydrochloride]	7.11

----------
- Assay details: Pharmacokinetic study of oral and intravenously injected compounds in CD-1 mouse
- Assay type: in vivo
- Condition context: male, CD-1, plasma, intravenous (IV), about 2 mg/kg
Structures can show the parent of a compound that is named as a salt.
Catalogue of compounds with associated half-life

Compound	Quantity unit	half-life
Nc1ccc(C(F)(F)F)c([C@H]2Cc3nc(OC[C@@]45CCCN4C[C@H](F)C5)nc(N4CC5CCC(C4)N5)c3CO2)c1F (single isomer, unassigned) [Compound 20B]	h	11.2
Cc1cc(N)c(F)c(C2Cc3nc(OC[C@@]45CCCN4C[C@H](F)C5)nc(N4CC5CCC(C4)N5)c3CO2)c1C(F)(F)F (some centres unmarked) [Compound 1 hydrochloride]	h	23.1

----------
- Tested on: p-ERK in GP2D cells
- Assay details: Assay of p-ERK inhibition in GP2D cells (HTRF)
- Type: cell-based
- Condition context: 1 hour incubation
Counter-ions that a name gives are not always drawn.
Catalogue of molecules with associated IC50

Molecule	IC50 (nM)
C=Cc1c(C)cc(N)c(F)c1C1Cc2nc(OC[C@@]34CCCN3C[C@H](F)C4)nc(N3CC4CCC(C3)N4)c2CO1 (stereo partly drawn) [Compound 19 hydrochloride]	17.5
Oc1cc(C2Cc3nc(OC[C@@]45CCCN4C[C@H](F)C5)nc(N4CC5CCC(C4)N5)c3CO2)c2ccccc2c1 (stereo partly drawn) [Compound 8 hydrochloride]	78
Nc1ccc(C(F)(F)F)c([C@H]2Cc3nc(OC[C@@]45CCCN4C[C@H](F)C5)nc(N4CC5CCC(C4)N5)c3CO2)c1F (single isomer, unassigned) [Compound 20B]	1.3
Cc1cc(N)c(F)c(C2Cc3nc(OC[C@@]45CCCN4C[C@H](F)C5)nc(N4CC5CCC(C4)N5)c3CO2)c1C(F)(F)C(F)(F)F (stereo partly drawn) [Compound 12 formate]	20.9
Cc1cc(N)c(F)c(C2Cc3nc(OC[C@@]45CCCN4C[C@H](F)C5)nc(N4CC5CCC(C4)N5)c3CO2)c1Br (stereo partly drawn) [Compound 15 hydrochloride]	8.4
Cc1cc(N)c(F)c(C2Cc3nc(OC[C@@]45CCCN4C[C@H](F)C5)nc(N4CC5CCC(C4)N5)c3CO2)c1I (stereo partly drawn) [Compound 16 hydrochloride]	2.9
Cc1cc(N)c(F)c(C2Cc3nc(OC[C@@]45CCCN4C[C@H](F)C5)nc(N4CC5CCC(C4)N5)c3CO2)c1Cl (stereo partly drawn) [Compound 14 hydrochloride]	5.2
Cc1cc(N)c(F)c(C2Cc3nc(OC[C@@]45CCCN4C[C@H](F)C5)nc(N4CC5CCC(C4)N5)c3CO2)c1C#N (stereo partly drawn)	66.4
Nc1cc(Cl)c(Br)c(C2Cc3nc(OC[C@@]45CCCN4C[C@H](F)C5)nc(N4CC5CCC(C4)N5)c3CO2)c1F (stereo partly drawn) [Compound 21 hydrochloride]	2.6
Cc1cc(N)c(F)c(C2Cc3nc(OC[C@@]45CCCN4C[C@H](F)C5)nc(N4CC5CCC(C4)N5)c3CO2)c1C (stereo partly drawn) [Compound 25 hydrochloride]	96.4
Cc1cc(N)c(F)c(C2Cc3nc(OC[C@@]45CCCN4C[C@H](F)C5)nc(N4CC5CCC(C4)N5)c3CO2)c1C1CC1 (stereo partly drawn) [Compound 27 hydrochloride]	118
Nc1cc(F)c(C(F)(F)F)c(C2Cc3nc(OC[C@@]45CCCN4C[C@H](F)C5)nc(N4CC5CCC(C4)N5)c3CO2)c1F (stereo partly drawn) [Compound 22 hydrochloride]	2.7

----------
- Tested on: p-ERK in GP2D cells
- Assay details: Assay of p-ERK inhibition in GP2D cells (HTRF)
- Assay type: cell-based
- Condition context: 1 hour incubation
- Method: The cell plate was inoculated in a carbon dioxide incubator at 37° C. overnight; • 2) 2 μL of the compound was weighed and added to 78 μL of the cell medium. […] The mixture was incubated at room temperature for at least 4 hours; • 6) After completion of the incubation, HTRF was read with multi-label analyzer: excitation: 320 nm, emission: 615 nm, 665 nm; • 7). IC50 of the compounds to be assayed was calculated.
Where a name gives a salt, the structure may show the parent alone.
Catalogue of compounds with associated IC50

Compound	IC50 / nM
Cc1cc(N)nc(C2Cc3nc(OC[C@@]45CCCN4C[C@H](F)C5)nc(N4CC5CCC(C4)N5)c3CO2)c1C(F)(F)F (stereo partly shown) [Compound 23 formate]	23.4
Cc1cc(N)c(F)c(C2Cc3nc(OC[C@@]45CCCN4C[C@H](F)C5)nc(N4CC5C=CC(C4)N5)c3CO2)c1C(F)(F)F (stereo partly shown) [Compound 7 hydrochloride]	1.1
C#Cc1c(C)cc(N)c(F)c1C1Cc2nc(OC[C@@]34CCCN3C[C@H](F)C4)nc(N3CC4CCC(C3)N4)c2CO1 (stereo partly shown)	27.1
Cc1cc(N)c(F)c(C2Cc3nc(OC[C@@]45CCCN4C[C@H](F)C5)nc(N4CC5CCC(C4)N5)c3CO2)c1C(F)(F)F (stereo partly shown) [Compound 1 hydrochloride]	0.8
